biological target: Ste12 (UniProt P13574); experiment: PBM E-score (8-mer binding enrichment) (E-score (-0.5 to 0.5)); higher = stronger / more preferred TF binding; settings: protein concentration: 200 nM; construct: GST-DNA-binding domain
Sequence (P13574 whole entry, the tested form may be a part): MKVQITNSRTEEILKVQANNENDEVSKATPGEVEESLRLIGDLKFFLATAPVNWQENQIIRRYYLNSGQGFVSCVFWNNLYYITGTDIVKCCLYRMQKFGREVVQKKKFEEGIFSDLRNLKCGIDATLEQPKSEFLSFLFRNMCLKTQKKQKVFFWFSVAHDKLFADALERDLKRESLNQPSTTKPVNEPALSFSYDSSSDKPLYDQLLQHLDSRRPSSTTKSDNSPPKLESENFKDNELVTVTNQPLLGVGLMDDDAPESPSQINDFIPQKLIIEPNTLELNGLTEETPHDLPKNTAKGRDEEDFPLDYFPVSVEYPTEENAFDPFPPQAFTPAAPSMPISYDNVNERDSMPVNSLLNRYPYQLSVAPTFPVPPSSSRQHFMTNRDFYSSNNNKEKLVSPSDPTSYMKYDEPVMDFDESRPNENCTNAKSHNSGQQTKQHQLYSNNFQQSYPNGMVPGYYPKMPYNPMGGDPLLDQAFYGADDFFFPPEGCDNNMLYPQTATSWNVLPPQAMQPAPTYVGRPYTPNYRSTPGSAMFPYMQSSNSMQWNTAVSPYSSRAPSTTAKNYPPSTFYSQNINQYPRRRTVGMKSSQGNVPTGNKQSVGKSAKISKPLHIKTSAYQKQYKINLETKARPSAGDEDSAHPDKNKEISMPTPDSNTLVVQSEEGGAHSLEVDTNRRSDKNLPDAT
Whole data set: some 33,000 sequences, median “E-score (-0.5 to 0.5)” near -0.01, cut for the highest 2% near 0.26. Only a selection was taken, and the highest values are over-represented in it overall.
quantity_name: PBM E-score
Answer with a bare number; do not write a unit.

stdin: Report PBM E-score for AAAAATCA please.
stdout: 0.254

stdin: Fill in the blank: the reported PBM E-score of ACGAGCCT is ____.
stdout: -0.0238

stdin: Record request: PBM E-score value, item AAATAGAG
stdout: 0.0914

stdin: PBM E-score for AAATATAA ?
stdout: 0.224

stdin: Given the sequence AAATAGAC , what is its reported PBM E-score?
stdout: -0.0352

stdin: Find the recorded PBM E-score belonging to ACCTGTCG and report it.
stdout: 0.00512

stdin: Query: PBM E-score; subject: AAATATAT
stdout: 0.273

stdin: Consider the sequence shown here: GCATCTAC What is its recorded PBM E-score?
stdout: 0.0977

stdin: Report PBM E-score for AAAAATAC please.
stdout: 0.25

stdin: For the sequence shown here, AAATATAC , give the reported PBM E-score.
stdout: 0.225

stdin: # get_value(readout='PBM E-score', item= GCAAGCAC )
stdout: -0.125

stdin: Look at this sequence and give its reported PBM E-score. AAAAATCT
stdout: 0.318

stdin: I am curious: what PBM E-score value has been reported for TCCCTCCA ?
stdout: -0.191

stdin: Using the record for AAACAGTG , report its PBM E-score.
stdout: 0.309

stdin: Consider the sequence CTAGTGTA and give its measured PBM E-score.
stdout: 0.129

stdin: Entry ACATCTTG : reported PBM E-score = ?
stdout: -0.151

stdin: Which value of PBM E-score has been reported for GCCTAAAC in the records?
stdout: -0.125

stdin: Which PBM E-score reading was recorded for the sequence AAACAAAG ?
stdout: 0.233

stdin: Tell me the measured PBM E-score of CAACAGTG , please.
stdout: 0.104

stdin: # lookup: PBM E-score of AAAAATAG
stdout: 0.24

stdin: Query: PBM E-score; subject: AAATAGAT
stdout: 0.275

stdin: Bench note: what PBM E-score did ACCTTAGT show?
stdout: -0.137

* * *

molecular target: Ste12 (UniProt P13574); test: PBM E-score (8-mer binding enrichment) (E-score (-0.5 to 0.5)); higher = stronger / more preferred TF binding; conditions: protein concentration: 200 nM; construct: GST-DNA-binding domain
The full ranking holds about 33,000 sequences; the median of “E-score (-0.5 to 0.5)” is about -0.01, and the highest 2% start at about 0.26. Only a selection was taken, and the highest values are over-represented in it overall.
quantity_name: PBM E-score
// keep it numeric: no unit symbol after the value

stdin: # query: PBM E-score | item CAAGTCTG | system: Ste12 (UniProt P13574)
stdout: -0.0972

stdin: # value lookup — system Ste12 (UniProt P13574), readout PBM E-score, item CGTTACAG
stdout: 0.146

stdin: Lab request: please report PBM E-score under test system Ste12 (UniProt P13574) for AATTTTAT
stdout: 0.217

stdin: Find PBM E-score (Ste12 (UniProt P13574)) for the entry TCTGAAGA
stdout: -0.149

stdin: API: value(readout= PBM E-score, system= Ste12 (UniProt P13574), query= CCGTTTAA )
stdout: 0.135

stdin: What is its PBM E-score for Ste12 (UniProt P13574)? Entry: GCCACGAC
stdout: 0.0374

stdin: Which PBM E-score is reported with Ste12 (UniProt P13574) for this entry: GTCCACCA ?
stdout: -0.342

stdin: Please tell me: PBM E-score of ATATTTTA , system Ste12 (UniProt P13574)?
stdout: 0.235

stdin: State its PBM E-score on Ste12 (UniProt P13574): GCGTTTAC
stdout: -0.0566

stdin: // map AGCTAGTC to recorded PBM E-score (system: Ste12 (UniProt P13574))
stdout: -0.133

stdin: Reported PBM E-score for Ste12 (UniProt P13574), given CGAATACA ?
stdout: 0.0383

stdin: What measured PBM E-score is associated with ATATGCTC on Ste12 (UniProt P13574)?
stdout: 0.0529

stdin: Return PBM E-score measured with Ste12 (UniProt P13574) given this sequence: GCTTTTTA
stdout: 0.271

stdin: Given the entry AATTTTAA , what PBM E-score was observed with Ste12 (UniProt P13574)?
stdout: 0.318

stdin: For Ste12 (UniProt P13574), provide PBM E-score of ATTTTACC please.
stdout: 0.277

stdin: Enter reported PBM E-score observed with Ste12 (UniProt P13574) for CACTATGG
stdout: -0.0915

stdin: Which measured PBM E-score belongs to CCGTTTTA , tested on Ste12 (UniProt P13574)?
stdout: 0.304

stdin: Enter reported PBM E-score observed with Ste12 (UniProt P13574) for AACTCTCC
stdout: -0.129

stdin: Lookup: PBM E-score / Ste12 (UniProt P13574) / AAACAAGC
stdout: 0.202

stdin: Provide value of PBM E-score for this record tested with Ste12 (UniProt P13574): ACCCGTCC
stdout: -0.0354

stdin: Item ACGCTCTC with Ste12 (UniProt P13574) - PBM E-score?
stdout: -0.122

stdin: API: value(readout=PBM E-score, system=Ste12 (UniProt P13574)) for record CTATTTTA
stdout: 0.232
